recorded.endpoint: melting point

COc1ccc(-c2cc(=O)n3cc(N4CC[C@H](N)C4)ccc3n2)cc1F	193 to 198 °C

Challenge: Specify melting point for CN1CCC(c2cn3c(=O)cc(-c4ccc5nn(C)cc5c4)nc3cn2)CC1 and stop.
Response given: 275 to 277 °C

Challenge: Specify melting point for Cc1cn2ccc(-c3cc(=O)n4cc(N5CCN(C)CC5)ccc4n3)cc2n1 and stop.
Response given: 285 to 288 °C

* * *

Test system: SMN2 minigene mRNA (SMN2-A minigene) in HEK293H cells
Experiment: SMN2 minigene mRNA splicing RT-qPCR assay in cultured cells
Type: cell-based, human
Conditions: Homo sapiens, HEK293-H; concentration increasing full length SMN2 mRNA 1.5-fold relative to vehicle-treated cells; HEK293H cells with SMN2-A minigene, 24 hours, 7-point concentration data; read-out: EC1.5x for production of full length SMN2 mRNA
Recorded EC (1.5-fold increase), one value per entry.

Answered examples (5):
CCN1CCN(c2ccc3nc(-c4cc5cnc(C)cn5n4)cc(=O)n3c2)CC1	< 0.1 µM
COc1ccc(-c2cc(=O)n3cc(N4CCC(N)CC4)ccc3n2)cc1OC	0.3 to 1 µM
COc1ccc(-c2cc(=O)n3cc(N4C[C@@H](C)N[C@@H](C)C4)ccc3n2)cc1	1 to 3 µM
CCCc1nc(C)cn2nc(-c3cc(=O)n4cc(N5C[C@H]6CNC[C@H]6C5)ccc4n3)cc12	< 0.1 µM
Cc1cn2nc(-c3cc(=O)n4cc(N5CCN(CCO)CC5)ccc4n3)cc2c(C2CC2)n1	0.3 to 1 µM

Challenge: Give EC (1.5-fold increase) for this entry on SMN2 minigene mRNA (SMN2-A minigene) in HEK293H cells: CCN1CC=C(c2ccc3nc(-c4ccc5c(cnn5C)c4)cc(=O)n3c2)CC1
Response given: < 0.1 µM

Challenge: Give EC (1.5-fold increase) for this entry on SMN2 minigene mRNA (SMN2-A minigene) in HEK293H cells: CCN1CCC(c2cn3c(=O)cc(-c4cc(C)c5nc(C)cn5c4)nc3cn2)CC1
Response given: < 0.1 µM

Challenge: Give EC (1.5-fold increase) for this entry on SMN2 minigene mRNA (SMN2-A minigene) in HEK293H cells: CCN1CCC(c2ccc3nc(-c4cc(Cl)c5nc(C)cn5c4)cc(=O)n3n2)CC1
Response given: 0.1 to 0.3 µM

Challenge: Give EC (1.5-fold increase) for this entry on SMN2 minigene mRNA (SMN2-A minigene) in HEK293H cells: Cc1cn2cc(-c3cc(=O)n4cc(C5CCN(CCO)CC5)ncc4n3)ccc2n1
Response given: 0.1 to 0.3 µM

Challenge: Give EC (1.5-fold increase) for this entry on SMN2 minigene mRNA (SMN2-A minigene) in HEK293H cells: COc1ccc(-c2cnc3cc(N4CCNCC4)ccn3c2=O)cc1OC
Response given: 3 to 30 µM

Challenge: Give EC (1.5-fold increase) for this entry on SMN2 minigene mRNA (SMN2-A minigene) in HEK293H cells: Cc1nc2ccc(-c3cc(=O)n4cc(C5=CCN(C(C)C)CC5)ccc4n3)cc2s1
Response given: 0.1 to 0.3 µM

Challenge: Give EC (1.5-fold increase) for this entry on SMN2 minigene mRNA (SMN2-A minigene) in HEK293H cells: COc1ccc(-c2cc(=O)n3cc(N4CCN[C@H](C)C4)ccc3n2)cc1
Response given: 0.3 to 1 µM

Challenge: Give EC (1.5-fold increase) for this entry on SMN2 minigene mRNA (SMN2-A minigene) in HEK293H cells: CCc1nc(C)cn2nc(-c3cc(=O)n4cc(N5CCC(C)(N)CC5)ccc4n3)cc12
Response given: < 0.1 µM

Challenge: Give EC (1.5-fold increase) for this entry on SMN2 minigene mRNA (SMN2-A minigene) in HEK293H cells: COc1ccc(-c2cc(=O)n3cc(N4CCN[C@@H](C)C4)ccc3n2)cc1Cl
Response given: 0.1 to 0.3 µM

Challenge: Give EC (1.5-fold increase) for this entry on SMN2 minigene mRNA (SMN2-A minigene) in HEK293H cells: CNC1CCN(c2cc(C)c3nc(-c4ccc(OC)c(OC)c4)cc(=O)n3c2)CC1
Response given: < 0.1 µM

Challenge: Give EC (1.5-fold increase) for this entry on SMN2 minigene mRNA (SMN2-A minigene) in HEK293H cells: COc1ccc(-c2cc(=O)n3cc(N4CC[C@H](NC(C)C)C4)ccc3n2)cc1OC
Response given: 1 to 3 µM

Challenge: Give EC (1.5-fold increase) for this entry on SMN2 minigene mRNA (SMN2-A minigene) in HEK293H cells: COc1ccc(-c2cc(=O)n3cc(N4CCN(C)CC4)ccc3n2)cc1OC
Response given: 1 to 3 µM

Challenge: Give EC (1.5-fold increase) for this entry on SMN2 minigene mRNA (SMN2-A minigene) in HEK293H cells: Cc1cn2cc(-c3cc(=O)n4cc(C5CCN(C)CC5)ncc4n3)cc(C)c2n1
Response given: 0.1 to 0.3 µM

* * *

Recorded melting point, one value per entry.

Answered examples (6):
Cc1nc2ccc(-c3cc(=O)n4cc(C5=CCN(C6CC6)CC5)ccc4n3)cc2s1	158 to 160 °C
COc1ccc(-c2cc(=O)n3nc(C4=CCNCC4)ccc3n2)cc1OC	195 to 200 °C
Cn1ncc2cc(-c3cc(=O)n4cc(C5=CCNCC5)ccc4n3)ccc21	200 to 203 °C
CCN1CCN(c2cn3c(=O)cc(-c4ccc5nn(C)cc5c4)nc3cn2)CC1	214 to 216 °C
CCCc1nc(C)cn2nc(-c3cc(=O)n4cc(N5C[C@@H](C)N[C@@H](C)C5)ccc4n3)cc12	249 to 251 °C
Cc1cn2nc(-c3cc(=O)n4cc(N5CCC(NC(C)C)CC5)cc(C)c4n3)cc2c(C)n1	215 to 225 °C

Challenge: Specify melting point for Cc1cn2nc(-c3cc(=O)n4cc(N5CCN(CCO)CC5)ccc4n3)cc2cn1 and stop.
Response given: 254 to 256 °C

Challenge: Specify melting point for COc1ccc(-c2cc(=O)n3cc(N4CCNCC4)ccc3n2)cc1C(F)(F)F and stop.
Response given: 177 to 181 °C

* * *

System: SMN2 minigene mRNA (SMN2-A minigene) in HEK293H cells
Experiment: SMN2 minigene mRNA splicing RT-qPCR assay in cultured cells
Format: cell-based, human
Settings: Homo sapiens, HEK293-H; concentration increasing full length SMN2 mRNA 1.5-fold relative to vehicle-treated cells; HEK293H cells with SMN2-A minigene, 24 hours, 7-point concentration data; read-out: EC1.5x for production of full length SMN2 mRNA
recorded.endpoint: EC (1.5-fold increase)

Answered examples (4):
CCc1nc(C)cn2nc(-c3cc(=O)n4cc(N5CCN(C6CCC6)[C@H](C)C5)ccc4n3)cc12	< 0.1 µM
Cc1cn2nc(-c3cc(=O)n4cc(N5CCC(N6CCOCC6)CC5)ccc4n3)cc2c(C)n1	0.3 to 1 µM
Cc1nc2ccc(-c3cc(=O)n4cc(N5CCCN(C)CC5)ccc4n3)cc2o1	< 0.1 µM
CCc1cc(-c2cc(=O)n3cc(N4CCN[C@@H](C)C4)ccc3n2)cn2cc(C)nc12	< 0.1 µM

Challenge: Specify EC (1.5-fold increase) for Cc1cn2nc(-c3cc(=O)n4cc(C5CCN(C6COC6)CC5)ccc4n3)cc2c(C)n1 and stop.
Response given: 0.1 to 0.3 µM

Challenge: Specify EC (1.5-fold increase) for COCCN1CCN(c2ccc3nc(-c4cc(Cl)c5nc(C)cn5c4)cc(=O)n3c2)C[C@@H]1C and stop.
Response given: < 0.1 µM

Challenge: Specify EC (1.5-fold increase) for CCc1nc(C)cn2nc(-c3cc(=O)n4cc(C5CCN(C)CC5)ncc4n3)cc12 and stop.
Response given: < 0.1 µM

Challenge: Specify EC (1.5-fold increase) for Cc1nc2cc(-c3cc(=O)n4cc(N5CCC(N(C)C)CC5)ccc4n3)ccc2s1 and stop.
Response given: < 0.1 µM

Challenge: Specify EC (1.5-fold increase) for COc1ccc(-c2ccc3nc(C4=CCN(C)CC4)cc(=O)n3c2)cc1OC and stop.
Response given: 0.3 to 1 µM

* * *

Recorded EC (1.5-fold increase), one value per entry.
Test system: SMN2 minigene mRNA (SMN2-A minigene) in HEK293H cells
Test: SMN2 minigene mRNA splicing RT-qPCR assay in cultured cells
Assay type: cell-based, human
Conditions: Homo sapiens, HEK293-H; concentration increasing full length SMN2 mRNA 1.5-fold relative to vehicle-treated cells; HEK293H cells with SMN2-A minigene, 24 hours, 7-point concentration data; read-out: EC1.5x for production of full length SMN2 mRNA

CCc1nc(C)cn2nc(-c3cc(=O)n4cc(OCCCN(C)C)ccc4n3)cc12	< 0.1 µM
COc1ccc(-c2cc(=O)n3cc(N4CCN(C)CC4)ccc3n2)cc1	1 to 3 µM
Cc1ccc(-c2cc(=O)n3cc(N4CCN[C@@H](C)C4)ccc3n2)cc1C	1 to 3 µM
Cc1cn2cc(-c3cc(=O)n4cc(N5CCN(C)[C@@H](C)C5)ccc4n3)cc(Cl)c2n1	< 0.1 µM

Challenge: Specify EC (1.5-fold increase) for O=c1cc(-c2ccc(O)c(F)c2)nc2ccc(N3CCNCC3)cn12 and stop.
Response given: 0.1 to 0.3 µM

Challenge: Specify EC (1.5-fold increase) for Cc1cn2nc(-c3cc(=O)n4cc(C5CCN(C)CC5)ncc4n3)cc2c(C)n1 and stop.
Response given: < 0.1 µM

Challenge: Specify EC (1.5-fold increase) for COc1cccc(-c2cc(=O)n3cc(N4CCNCC4)ccc3n2)n1 and stop.
Response given: 1 to 3 µM

Challenge: Specify EC (1.5-fold increase) for Cc1cn2nc(-c3cc(=O)n4cc(C5=CCN(C6CC6)CC5)cc(C)c4n3)cc2c(C)n1 and stop.
Response given: < 0.1 µM
